Molecular target: Estrogen receptor (Homo sapiens) (UniProt P03372)
Sequence (P03372 whole entry, looked up): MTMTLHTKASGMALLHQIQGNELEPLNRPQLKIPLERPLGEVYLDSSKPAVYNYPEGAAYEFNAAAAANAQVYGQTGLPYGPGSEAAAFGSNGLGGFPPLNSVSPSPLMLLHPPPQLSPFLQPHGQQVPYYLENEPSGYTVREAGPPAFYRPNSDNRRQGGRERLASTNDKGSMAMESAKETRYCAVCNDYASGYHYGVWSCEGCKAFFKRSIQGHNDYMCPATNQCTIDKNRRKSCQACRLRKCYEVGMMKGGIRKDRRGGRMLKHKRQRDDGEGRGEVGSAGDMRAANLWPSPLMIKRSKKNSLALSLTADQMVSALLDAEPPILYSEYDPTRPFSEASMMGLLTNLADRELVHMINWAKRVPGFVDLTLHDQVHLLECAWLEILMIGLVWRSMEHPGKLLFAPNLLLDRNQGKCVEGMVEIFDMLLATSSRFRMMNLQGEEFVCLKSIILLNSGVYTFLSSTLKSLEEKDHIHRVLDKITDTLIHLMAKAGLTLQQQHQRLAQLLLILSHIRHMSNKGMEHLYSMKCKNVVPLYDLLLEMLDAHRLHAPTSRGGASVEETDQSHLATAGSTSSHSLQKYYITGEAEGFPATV
Experiment: qHTS assay to identify small molecule antagonists of the estrogen receptor alpha (ER-alpha) signaling pathway using the BG1 cell line in the presence of 0.1 nM 17-beta-estradiol (AID 1259244); also: % is scaled to controls: 0 for no effect and ±100 for the full control effect; nearly all actives have a fitted effect of over 50% in size
Details: VM7Luc4E2 (BG1) ERE-luciferase, antagonist mode, 0.1 nM E2, 22 h; series mostly up to 92.4 µM
Records with an inconclusive call do not appear. Active and inactive are the calls of the source. Calls follow the shape of the dose curve; as a rule, active = well fitted inhibition curve with a large enough effect in the repeat runs; inconclusive = weak or mixed curves; inactive = no such curve, though single readings can be large or run the other way.

{"columns": ["compound", "activity change, negative = inhibition"],
 "data": [
  ["Nc1c2c(nc3ccccc13)CCCC2O (stereo not drawn)", "inactive"],
  ["C=C(C)CS(=O)(=O)O", "inactive"],
  ["Cc1cccc(C)c1NC(=O)C(C)N (stereo not drawn)", "inactive"],
  ["NC(CSCC(=O)O)C(=O)O (stereo not drawn)", "inactive"],
  ["O=c1cc(CO)occ1O", "inactive"],
  ["CC(=O)OCC(=O)[C@@]1(O)CC[C@H]2[C@@H]3CCC4=CC(=O)CC[C@]4(C)[C@H]3C(=O)C[C@@]21C", "inactive"],
  ["CC(C)c1cc2c(cc1S(=O)(=O)O)[C@@]1(C)CCC[C@@](C)(C(=O)O)[C@@H]1CC2", "inactive"],
  ["COc1ccccc1OCC(O)CN1CCN(CC(=O)Nc2c(C)cccc2C)CC1 (stereo not drawn)", "inactive"],
  ["CCCCCCOC(=O)CCCCC(=O)OCCCCCC", "inactive"],
  ["CCC(C)C1CCCCC1=O (stereo not drawn)", "inactive"],
  ["O=C(O)CCCl", "inactive"],
  ["CCO/C([O-])=N/c1c[n+](N2CCOCC2)no1", "inactive"],
  ["CCOC(=O)[C@H](CCc1ccccc1)N[C@@H](C)C(=O)N1[C@H](C(=O)O)C[C@@H]2CCC[C@@H]21", "inactive"],
  ["CCCc1cc(C(N)=S)ccn1", "inactive"],
  ["N=c1nc(N2CCCCC2)cc(N)n1O", "inactive"],
  ["CCOC(=O)c1ccc(C)cc1", "inactive"],
  ["NC(=O)COCCN1CCN(C(c2ccccc2)c2ccc(Cl)cc2)CC1 (stereo not drawn)", "inactive"],
  ["Nc1c[n+](N2CCOCC2)no1", "inactive"],
  ["CC/C=C\\CCOC(C)=O", "inactive"],
  ["Nc1ccc(S(=O)(=O)Nc2ccnn2-c2ccccc2)cc1", "0.724% [at 19 µM] (inactive)"],
  ["NC(=O)Nc1ccccc1", "inactive"],
  ["OC(CCN1CCCCC1)(c1ccccc1)C1CC2C=CC1C2 (stereo not drawn)", "inactive"],
  ["C=C[Si](OC(=C)C)(OC(=C)C)OC(=C)C", "inactive"],
  ["c1ccc([C@H]2CN3CCSC3=N2)cc1", "inactive"],
  ["CC(C)NCCCC1(C(N)=O)c2ccccc2-c2ccccc21", "inactive"],
  ["CCCCCOC(=O)CCCCC", "inactive"],
  ["CO[Si](CCCOCC1CO1)(OC)OC (stereo not drawn)", "inactive"],
  ["CCOC(=O)CCC(C)=O", "inactive"]
]}

====

Biological target: Nuclear receptor subfamily 1 group I member 3 (Homo sapiens)
Test: qHTS assay to identify small molecule antagonists of the constitutive androstane receptor (CAR) signaling pathway (AID 1224838);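 also: HepG2 cells stably expressing hCAR with CYP2B6 luciferase reporter stimulated by CITCO; % is scaled to controls: 0 for no effect and ±100 for the full control effect; nearly all actives have a fitted effect of over 40% in size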
Details: HepG2-CYP2B6-hCAR luciferase, CITCO-stimulated, 24 h; series mostly up to 92.4 µM
From the text: U.S. Tox21 Program National Center for Advancing Translational Sciences [NCATS] NIH Chemical Genomics Center [NCGC] U.S. Environmental Protection Agency [EPA] National Institutes of Environmental Health Sciences [NIEHS] National Toxicology Program [NTP] U.S. Food and Drug Administration [FDA] […] Tox21 Assay Protocol Summary: A double-stable (hCAR and CYP2B6-2.2kb) transfected cell line, derived from human hepatoma (HepG2) cells, was utilized for the duration of the quantitative high-throughput screens. […]
Records with an inconclusive call do not appear. The source made the active and inactive calls. Calls come from the whole dose curve; as a rule, active = well fitted inhibition curve with a large enough effect in the repeat runs; inconclusive = weak or mixed curves, or effect the other way; inactive = no such curve, though single readings can be large or run the other way.
measurement-name: activity, negative = inhibition

{"columns": ["compound", "reported"],
 "data": [
  ["O=C[C@H](O)[C@@H](O)[C@H](O)[C@H](O)CO", "inactive"],
  ["COC(=O)NN", "inactive"],
  ["CC/C=C\\CC/C=C/CO", "inactive"],
  ["C[C@@H]1CCN(C(=O)[C@H](CCCN=C(N)N)NS(=O)(=O)c2cccc3c2NC[C@H](C)C3)[C@@H](C(=O)O)C1", "inactive"],
  ["CCc1ccc(O)c(OC)c1", "inactive"],
  ["CCCN1CCCC[C@H]1C(=O)Nc1c(C)cccc1C", "inactive"],
  ["CO[Si](CCCOCC1CO1)(OC)OC (configuration not stated)", "inactive"]
]}

====

Assay: qHTS assay for identifying genotoxic compounds that show differential cytotoxicity against isogenic chicken DT40 cell lines with known DNA damage response pathways - Rev3 mutant cell line (AID 743014); also: nearly all actives have a fitted effect of over 55% in size
Settings: chicken DT40 Rev3-/- viability, CellTiter-Glo, 40 h; series mostly up to 68.4 µM
Inconclusive results are not listed. Activity calls are given as the source filed them. The call rests on the fitted dose curve; in most records, active means well fitted cell-killing curve with a large enough effect in the repeat runs; inconclusive means weak or mixed curves, or effect the other way; inactive means no such curve, though single readings can be large or run the other way.
Classes used: active, inactive

{"columns": ["compound", "group-label"],
 "data": [
  ["O=C(CCCN1CCC(O)(c2cccc(C(F)(F)F)c2)CC1)c1ccc(F)cc1", "active"],
  ["CN(C)CCCNCCCN(C)C", "inactive"],
  ["FC(F)OC(Cl)C(F)(F)F (stereo unspecified)", "inactive"],
  ["CCC=O", "inactive"],
  ["CCCCNC(=O)NCCCC", "inactive"],
  ["NC(=O)COCCN1CCN(C(c2ccccc2)c2ccc(Cl)cc2)CC1 (stereo unspecified)", "active"],
  ["NC(=O)c1ccc(N)cc1", "inactive"],
  ["COCCCOCCCOC", "inactive"],
  ["O=C(O)Cc1ccc(CCNS(=O)(=O)c2ccc(Cl)cc2)cc1", "inactive"],
  ["CCOc1ccc(C(=O)OCCN(CC)CC)cc1", "active"],
  ["CC(C)NC(=O)NC(C)C", "inactive"],
  ["CCC(C)C1CCCCC1=O (stereo unspecified)", "inactive"],
  ["Nc1ccc(S(=O)(=O)Nc2ccnn2-c2ccccc2)cc1", "inactive"],
  ["CC(C)c1cc2c(cc1S(=O)(=O)O)[C@@]1(C)CCC[C@@](C)(C(=O)O)[C@@H]1CC2", "inactive"],
  ["Cn1cc(S(C)=O)c(=O)c2ccc(F)cc21 (stereo unspecified)", "inactive"],
  ["CN(C)CCCSc1ccccc1NC(=O)/C=C/c1ccccc1", "active"],
  ["CCSC(=O)N(CC(C)C)CC(C)C", "inactive"],
  ["NCCCNCCSP(=O)(O)O", "inactive"],
  ["CCCCCCCCCCCC", "inactive"],
  ["COC(=O)NN", "inactive"],
  ["CCCC(=O)O[C@]1(C(=O)CO)CC[C@H]2[C@@H]3CCC4=CC(=O)CC[C@]4(C)[C@H]3[C@@H](O)C[C@@]21C", "inactive"],
  ["O=C(O)c1ccccc1OP(=O)(O)O", "inactive"],
  ["Nc1cc(=O)[nH]c(N)n1", "inactive"],
  ["CCN1CCC[C@H]1CNC(=O)c1c(O)c(Cl)cc(Cl)c1OC", "inactive"],
  ["Cc1c(O)cccc1O", "inactive"],
  ["OC1CCCCC1c1ccccc1 (stereo unspecified)", "inactive"],
  ["CC(=O)OCC(=O)[C@@]1(O)CC[C@H]2[C@@H]3CCC4=CC(=O)CC[C@]4(C)[C@H]3C(=O)C[C@@]21C", "inactive"],
  ["CC1(C)CO[C@@H](CC(=O)O)CN1", "inactive"],
  ["CC(=O)Nc1ccc(S(N)(=O)=O)cc1", "inactive"],
  ["CCN(CC)CCOCCOC(=O)C1(c2ccccc2)CCCC1", "active"],
  ["c1ccc(CC2=NCCN2)cc1", "inactive"],
  ["O=C(O)COc1nn(Cc2ccccc2)c2ccccc12", "inactive"],
  ["CC/C=C\\CCOC(C)=O", "inactive"],
  ["O=C(O)CNC(=O)c1ccc([N+](=O)[O-])cc1", "inactive"],
  ["CCN(CC)CCNC(=O)c1cc(S(C)(=O)=O)ccc1OC", "inactive"],
  ["CC(C)(O)C(=O)c1ccccc1", "inactive"],
  ["CCc1ccc(O)c(OC)c1", "inactive"],
  ["CCCCOCCOCCOCCCC", "inactive"],
  ["O=C1CCCCCCCCCCCN1", "inactive"],
  ["CO/N=C(/C(=O)N[C@@H]1C(=O)N2C(C(=O)OCOC(=O)C(C)(C)C)=C(C)CS[C@H]12)c1csc(N)n1", "inactive"],
  ["CO[C@]12C[C@@H](COC(=O)c3cncc(Br)c3)CN(C)[C@@H]1Cc1cn(C)c3cccc2c13", "active"],
  ["CCOC(=O)CCC(C)=O", "inactive"],
  ["O=C1CC2CC1C1CCCC21 (stereo unspecified)", "inactive"],
  ["Cc1ccc(C#N)cc1", "inactive"],
  ["N[C@H](C(=O)O)c1ccc(O)cc1", "inactive"],
  ["CS(=O)(=O)O", "inactive"],
  ["CCOC(=O)Nc1ccc(NCc2ccc(F)cc2)nc1N", "inactive"],
  ["C=CCCCCCCCCC=O", "inactive"],
  ["OC[C@]1(O)OC[C@@H](O)[C@H](O)[C@@H]1O", "inactive"],
  ["O=C1OC(=O)C2CCCCC12 (stereo unspecified)", "inactive"],
  ["CC(=O)c1ccccc1O", "inactive"],
  ["COC(=O)c1cc(C(=O)OC)cc(S(=O)(=O)O)c1", "inactive"],
  ["CC(C)(C)c1nnc(NS(=O)(=O)c2ccccc2)s1", "inactive"],
  ["CCc1nccnc1CC", "inactive"],
  ["Oc1ccc(C2CNCCc3c2cc(O)c(O)c3Cl)cc1 (stereo unspecified)", "inactive"],
  ["CCCCCCCCCCCCCCCCC", "inactive"]
]}
